Assay: Minimum toxic concentration required to cause a microscopically detectable alteration of normal MDCK cell morphology
Type: toxicity, cell-based, Canis lupus familiaris
Conditions: dog, MDCK cells; read-out: MTC
OBSERVABLE: MCC (µM)

[[record]]
compound = "Cc1nc(C)n2c1NC=NC2N (stereo not drawn)"
units_of_measure = "µM"
result_comparator = ">"
measured_number = 1100

[[record]]
compound = "Cc1ccc(Cc2ncn3c(S)ncnc23)cc1"
units_of_measure = "µM"
result_comparator = "="
measured_number = 3.1

[[record]]
compound = "NC12CC3CC(CC(C3)C1)C2 [AMANTADINE]"
units_of_measure = "µM"
result_comparator = ">"
measured_number = 661

[[record]]
compound = "CSc1ncnc2c(Cc3ccc(C)cc3)ncn12"
units_of_measure = "µM"
result_comparator = "="
measured_number = 74

[[record]]
compound = "Cc1nc(C)n2c(S)ncnc12"
units_of_measure = "µM"
result_comparator = ">"
measured_number = 1110

[[record]]
compound = "Cc1ccc(Cc2ncn3c(=O)[nH]c(=S)[nH]c23)cc1"
units_of_measure = "µM"
result_comparator = ">"
measured_number = 735

[[record]]
compound = "Cc1nc(C)n2c(=O)[nH]c(=S)[nH]c12"
units_of_measure = "µM"
result_comparator = ">"
measured_number = 1020

[[record]]
compound = "O=c1[nH]c(=S)[nH]c2c(CCCCCOCc3ccccc3)ncn12"
units_of_measure = "µM"
result_comparator = "="
measured_number = 291

[[record]]
compound = "CSC1NC(=O)n2cnc(Cc3ccc(C)cc3)c2N1 (stereo not drawn)"
units_of_measure = "µM"
result_comparator = "="
measured_number = 67.7

[[record]]
compound = "CSC1NC(=O)n2cnc(CCCCCOCc3ccccc3)c2N1 (stereo not drawn)"
units_of_measure = "µM"
result_comparator = "="
measured_number = 55.8

[[record]]
compound = "CSC1N=CNc2c(C)ncn21 (stereo not drawn)"
units_of_measure = "µM"
result_comparator = "="
measured_number = 111

[[record]]
compound = "Cc1nc(C)n2c1NC(SCc1ccccc1)NC2=O (stereo not drawn)"
units_of_measure = "µM"
result_comparator = ">"
measured_number = 699

[[record]]
compound = "NC(=O)c1ncn([C@@H]2O[C@H](CO)[C@@H](O)[C@H]2O)n1 [RIBAVIRIN]"
units_of_measure = "µM"
result_comparator = ">"
measured_number = 820


====

System: Vero
Assay: Inhibitory concentration against parainfluenza-3 virus in vero cells
Assay type: functional, cell-based
Conditions: Chlorocebus sabaeus
OBSERVABLE: IC50

[[record]]
compound = "O=c1[nH]c(=S)[nH]c2c(Cc3ccccc3)ncn12"
observable = "IC50"
result = "> 775 µM"

[[record]]
compound = "Cc1nc(C)n2c(=O)[nH]c(=S)[nH]c12"
observable = "IC50"
result = "> 1020 µM"

[[record]]
compound = "Oc1ncnc2c(Cc3ccccc3)ncn12"
observable = "IC50"
result = "> 885 µM"

[[record]]
compound = "Cc1ncn2c(=O)[nH]c(=S)[nH]c12"
observable = "IC50"
result = "> 1100 µM"

[[record]]
compound = "CN(C)c1ncnc2c(Cc3ccccc3)ncn12"
observable = "IC50"
result = "> 790 µM"

[[record]]
compound = "Cc1ncn2c(S)ncnc12"
observable = "IC50"
result = "> 602 µM"

[[record]]
compound = "Cc1ccc(CSC2NC(=O)n3cnc(CCCCCOCc4ccccc4)c3N2)cc1 (stereo unspecified)"
observable = "IC50"
result = "> 22.3 µM"

[[record]]
compound = "Cc1ccc(CSC2NC(=O)n3c(C)nc(C)c3N2)cc1 (stereo unspecified)"
observable = "IC50"
result = "> 131 µM"

[[record]]
compound = "CSC1N=CNc2c(C)nc(C)n21 (stereo unspecified)"
observable = "IC50"
result = "> 515 µM"

[[record]]
compound = "Cc1ccc(Cc2ncn3c(O)ncnc23)cc1"
observable = "IC50"
result = "> 833 µM"

[[record]]
compound = "Sc1ncnc2c(Cc3ccccc3)ncn12"
observable = "IC50"
result = "33 µM"

[[record]]
compound = "Cc1nc(C)n2c1NC=NC2N (stereo unspecified)"
observable = "IC50"
result = "> 1100 µM"

[[record]]
compound = "Cc1ccc(Cc2ncn3c(=O)[nH]c(=S)[nH]c23)cc1"
observable = "IC50"
result = "> 735 µM"

[[record]]
compound = "CSC1NC(=O)n2cnc(Cc3ccc(C)cc3)c2N1 (stereo unspecified)"
observable = "IC50"
result = "136 µM"

[[record]]
compound = "Cc1ccc(Cc2ncn3c(N(C)C)ncnc23)cc1"
observable = "IC50"
result = "> 374 µM"

[[record]]
compound = "NC(=O)c1ncn([C@@H]2O[C@H](CO)[C@@H](O)[C@H]2O)n1"
observable = "IC50"
result = "287 µM"

[[record]]
compound = "Cc1nc(C)n2c1NC(SCc1ccccc1)NC2=O (stereo unspecified)"
observable = "IC50"
result = "> 140 µM"

[[record]]
compound = "Cc1ccc(Cc2ncn3c(S)ncnc23)cc1"
observable = "IC50"
result = "6.2 µM"

[[record]]
compound = "Cc1nc(C)n2c(S)ncnc12"
observable = "IC50"
result = "> 556 µM"

[[record]]
compound = "CSc1ncnc2c(Cc3ccc(C)cc3)ncn12"
observable = "IC50"
result = "> 148 µM"

[[record]]
compound = "Cc1nc(Cc2ccccc2)c2ncnc(O)n12"
observable = "IC50"
result = "> 417 µM"

[[record]]
compound = "Cc1ccc(CSc2ncnc3c(Cc4ccc(C)cc4)ncn23)cc1"
observable = "IC50"
result = "> 278 µM"

[[record]]
compound = "Cc1ncn2c1NC=NC2N (stereo unspecified)"
observable = "IC50"
result = "> 671 µM"

[[record]]
compound = "Cc1ccc(CSC2NC(=O)n3cnc(Cc4ccc(C)cc4)c3N2)cc1 (stereo unspecified)"
observable = "IC50"
result = "> 104 µM"

[[record]]
compound = "CSC1N=CNc2c(C)ncn21 (stereo unspecified)"
observable = "IC50"
result = "> 222 µM"

[[record]]
compound = "CSC1NC(=O)n2cnc(CCCCCOCc3ccccc3)c2N1 (stereo unspecified)"
observable = "IC50"
result = "> 27.9 µM"

